Reference for the values: patent US9650379B2

# TARGET_OR_TEST_SYSTEM: HDAC6 human recombinant (Homo sapiens, UniProt Q9UBN7)
# ASSAY_METHOD_TEXT: Inhibition of HDAC6 activity (fluorimetric assay)
# EXPERIMENTAL_CONDITIONS: test concentrations 0.1, 1, 10, 100 and 1000 nM; 37° C., 60 minutes
pIC50: −log10 of the molar value.
REPORTED_METRIC: pIC50

INSERT INTO results (compound, measured_result) VALUES
  ('COc1ccc(CN2CCC(c3cnc4c(ccn4Cc4ccc(C(=O)NO)cc4)c3)CC2)cc1 [Compound 830]', 7.89),
  ('O=C(NO)c1ccc(Cn2ccc3cc(C4=CCOCC4)cnc32)cc1 [Compound 629]', 8.40),
  ('O=C(NO)c1ccc(Cn2ccc3ccc(C4=CCOCC4)nc32)cc1 [Compound 743]', 7.60),
  ('O=C(NO)c1ccc(Cn2ccc3cc(C4CCN(Cc5ccc(F)cc5)CC4)cnc32)cc1 [Compound 843]', 7.85),
  ('CC(C)(O)CN1CCC(c2ccc3ccn(Cc4ccc(C(=O)NO)cc4)c3n2)CC1 [Compound 991]', 7.49),
  ('CCN1CCN(c2ccnc3c2ccn3Cc2ccc(C(=O)NO)cc2)CC1 [Compound 223]', 8.15),
  ('O=C(NO)c1ccc(Cn2ccc3cc(C4CCN(Cc5ccc(-c6ccco6)cc5)CC4)cnc32)cc1 [Compound 875]', 7.49),
  ('O=C(NO)c1ccc(Cn2ccc3c(C4CCN(Cc5cccnc5)CC4)ccnc32)cc1 [Compound 1014]', 8.07);

* * *

# TARGET_OR_TEST_SYSTEM: HDAC6 human recombinant (Homo sapiens, UniProt Q9UBN7)
# Sequence (Q9UBN7 1-1215): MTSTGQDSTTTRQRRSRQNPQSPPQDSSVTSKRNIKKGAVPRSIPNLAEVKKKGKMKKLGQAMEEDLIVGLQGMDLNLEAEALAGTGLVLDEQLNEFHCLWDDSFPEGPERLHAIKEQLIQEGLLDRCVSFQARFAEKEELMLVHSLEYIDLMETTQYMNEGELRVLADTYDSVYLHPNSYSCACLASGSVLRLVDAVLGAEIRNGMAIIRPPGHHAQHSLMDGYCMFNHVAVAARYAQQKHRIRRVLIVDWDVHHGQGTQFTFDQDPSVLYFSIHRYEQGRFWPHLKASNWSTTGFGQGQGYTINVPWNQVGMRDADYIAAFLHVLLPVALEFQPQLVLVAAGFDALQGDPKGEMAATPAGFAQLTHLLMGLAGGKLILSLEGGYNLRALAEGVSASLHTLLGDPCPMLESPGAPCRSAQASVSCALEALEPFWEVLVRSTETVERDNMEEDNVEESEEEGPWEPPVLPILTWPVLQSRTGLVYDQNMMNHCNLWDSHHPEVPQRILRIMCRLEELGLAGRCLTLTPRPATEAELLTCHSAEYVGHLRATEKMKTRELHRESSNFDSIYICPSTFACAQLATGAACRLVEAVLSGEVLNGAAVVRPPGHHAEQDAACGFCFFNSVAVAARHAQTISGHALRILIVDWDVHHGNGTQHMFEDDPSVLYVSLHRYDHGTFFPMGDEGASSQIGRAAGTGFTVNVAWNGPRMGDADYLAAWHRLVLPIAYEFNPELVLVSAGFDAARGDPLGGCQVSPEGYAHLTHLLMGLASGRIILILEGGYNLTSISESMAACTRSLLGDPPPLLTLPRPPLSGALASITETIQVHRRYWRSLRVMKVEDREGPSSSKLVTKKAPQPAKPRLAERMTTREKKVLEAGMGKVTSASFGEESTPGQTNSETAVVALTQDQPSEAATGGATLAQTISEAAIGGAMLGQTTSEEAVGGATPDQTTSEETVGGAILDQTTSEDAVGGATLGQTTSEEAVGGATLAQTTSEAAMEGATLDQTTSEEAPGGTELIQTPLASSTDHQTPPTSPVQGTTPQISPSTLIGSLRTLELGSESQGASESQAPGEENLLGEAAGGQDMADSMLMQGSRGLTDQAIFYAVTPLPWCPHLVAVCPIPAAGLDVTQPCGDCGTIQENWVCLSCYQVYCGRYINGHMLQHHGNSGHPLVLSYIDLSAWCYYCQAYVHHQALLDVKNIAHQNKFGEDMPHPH
# ASSAY_METHOD_TEXT: Inhibition of HDAC6 activity (fluorimetric assay)
# EXPERIMENTAL_CONDITIONS: test concentrations 0.1, 1, 10, 100 and 1000 nM; 37° C., 60 minutes
pIC50: −log10 of the molar value.
REPORTED_METRIC: pIC50

INSERT INTO assay_data (chemical_structure, measured_result) VALUES
  ('O=C(NO)c1ccc(Cn2ccc3cc(C4CCN(Cc5ccc(C(F)(F)F)cc5)CC4)cnc32)cc1', 6.78),
  ('CC1CCN(c2cnc3c(ccn3Cc3ccc(C(=O)NO)cc3)c2)CC1', 7.42),
  ('O=C(NO)c1ccc(Cn2ccc3cc(-c4cnc(O)nc4)cnc32)cc1', 7.21),
  ('O=C(NO)c1ccc(Cn2ccc3c(N4CCN(Cc5ccccc5)CC4)ccnc32)cc1', 8.05),
  ('CC(C)(C)CCN1CCC(c2cnc3c(ccn3Cc3ccc(C(=O)NO)cc3)c2)CC1', 7.74),
  ('CN1CC=C(c2ccnc3c2ccn3Cc2ccc(C(=O)NO)cc2)CC1', 8.30),
  ('CCc1cnc(N2CCN(c3ccnc4c3ccn4Cc3ccc(C(=O)NO)cc3)CC2)nc1', 7.80),
  ('O=C(NO)c1ccc(Cn2ccc3cc(C4CCN(Cc5ncccn5)CC4)cnc32)cc1', 8.28);

* * *

Observed IC50 for HDAC1 (Homo sapiens, UniProt Q13547), reported per entry below.
REPORTED_METRIC: IC50 (nM)

INSERT INTO measurements (chemical_structure, reported_metric, measured_result) VALUES
  ('CN1CCN(Cc2cccc(CN3CCC(c4cnc5c(ccn5Cc5ccc(C(=O)NO)cc5)c4)CC3)c2)CC1', 'IC50', 1050),
  ('O=C(NO)c1ccc(Cn2ccc3cc(C4=CCN(CC5CCCCC5)CC4)cnc32)cc1', 'IC50', 1320),
  ('CN1CCN(Cc2cccc(-c3ccnc4c3ccn4Cc3ccc(C(=O)NO)cc3)c2)CC1', 'IC50', 570),
  ('O=C(NO)c1ccc(Cn2ccc3cc(-c4ccc5cccnc5c4)cnc32)cc1', 'IC50', 4610),
  ('CC(C)(F)C(=O)N1CCC(c2ccnc3c2ccn3Cc2ccc(C(=O)NO)cc2)CC1', 'IC50', 60),
  ('CC(C)(O)CN1CC2(CCN(c3cnc4c(ccn4Cc4ccc(C(=O)NO)cc4)c3)CC2)C1', 'IC50', 830),
  ('O=C(NO)c1ccc(Cn2ccc3cc(C4CCN(Cc5cccnc5)CC4)cnc32)cc1', 'IC50', 610),
  ('CC(C)(F)C(=O)N1CCN(c2ccnc3c2ccn3Cc2ccc(C(=O)NO)cc2)CC1', 'IC50', 80);

* * *

Observed IC50 for HDAC1 (Homo sapiens, UniProt Q13547), reported per entry below.
REPORTED_METRIC: IC50

INSERT INTO assay_data (compound, measured_result) VALUES
  ('CC(C)(C)OC(=O)NC1CCN(c2cnc3c(ccn3Cc3ccc(C(=O)NO)cc3)c2)CC1 [Compound 809]', '3720 nM'),
  ('CN1CC=C(c2ccnc3c2ccn3Cc2ccc(C(=O)NO)cc2)CC1 [Compound 723]', '310 nM'),
  ('O=C(NO)c1ccc(Cn2ccc3cc(N4CCN(Cc5ccc(F)cc5)CC4)cnc32)cc1 [Compound 852]', '2210 nM'),
  ('CC(C)(F)CN1CCC(c2cnc3c(ccn3Cc3ccc(C(=O)NO)cc3)c2)CC1 [Compound 618]', '1300 nM');

* * *

Below, each of the compounds is paired with its reported pIC50 value.
# TARGET_OR_TEST_SYSTEM: HDAC6 human recombinant (Homo sapiens)
# ASSAY_METHOD_TEXT: Inhibition of HDAC6 activity (fluorimetric assay)
# EXPERIMENTAL_CONDITIONS: test concentrations 0.1, 1, 10, 100 and 1000 nM; 37° C., 60 minutes
pIC50: −log10 of the molar value.
REPORTED_METRIC: pIC50

INSERT INTO measurements (chemical_structure, measured_result) VALUES
  ('O=C(NO)c1ccc(Cn2ccc3c(-c4cccc(CN5CCOCC5)c4)ccnc32)cc1', 8.05),
  ('O=C(NO)c1ccc(Cn2ccc3cc(-c4ccc(F)cc4F)cnc32)cc1', 7.28),
  ('Nc1cccc(-c2cnc3c(ccn3Cc3ccc(C(=O)NO)cc3)c2)c1', 7.92),
  ('C[C@@H]1CN(c2cnc3c(ccn3Cc3ccc(C(=O)NO)cc3)c2)C[C@H](C)N1Cc1cccnc1', 8.49);

* * *

# TARGET_OR_TEST_SYSTEM: HDAC1 (Homo sapiens, UniProt Q13547)
# Sequence (Q13547 whole entry): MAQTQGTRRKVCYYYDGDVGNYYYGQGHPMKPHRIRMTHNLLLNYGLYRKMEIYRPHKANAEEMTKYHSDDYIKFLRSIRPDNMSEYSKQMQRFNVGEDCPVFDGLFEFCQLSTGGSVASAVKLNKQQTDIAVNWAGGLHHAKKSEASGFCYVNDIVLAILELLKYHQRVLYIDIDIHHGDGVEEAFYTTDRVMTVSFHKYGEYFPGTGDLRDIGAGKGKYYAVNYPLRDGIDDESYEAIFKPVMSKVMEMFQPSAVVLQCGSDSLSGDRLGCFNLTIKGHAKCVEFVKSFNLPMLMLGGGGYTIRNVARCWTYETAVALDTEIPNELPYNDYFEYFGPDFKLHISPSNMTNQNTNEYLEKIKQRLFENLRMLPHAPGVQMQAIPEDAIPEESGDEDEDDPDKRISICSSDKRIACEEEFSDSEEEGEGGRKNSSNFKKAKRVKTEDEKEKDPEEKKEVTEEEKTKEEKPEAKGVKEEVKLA
Okay, here is how we bin by IC50: low (below 600 nM), moderate (600 nM to below 2000 nM), high (2000 nM or more)

INSERT INTO measurements (compound, category) VALUES
  ('O=C(NO)c1ccc(Cn2ccc3cc(C4CCN(Cc5ccccc5F)CC4)cnc32)cc1', 'moderate'),
  ('O=C(NO)c1ccc(Cn2ccc3cc(-c4ccc(O)cc4)cnc32)cc1', 'high'),
  ('CN1CCC(c2cnc3c(ccn3Cc3ccc(C(=O)NO)cc3)c2)CC1', 'moderate'),
  ('CC(C)(F)CN1CCN(c2ccnc3c2ccn3Cc2ccc(C(=O)NO)cc2)CC1', 'high'),
  ('O=C(NO)c1ccc(Cn2ccc3c(C4CCN(C(=O)c5cccc(F)c5)CC4)ccnc32)cc1', 'low'),
  ('O=C(NO)c1ccc(Cn2ccc3cc(C4CCNCC4)cnc32)cc1', 'low'),
  ('O=C(NO)c1ccc(Cn2ccc3cc(-c4cnc(O)nc4)cnc32)cc1', 'high'),
  ('C[C@@H]1CN(c2cnc3c(ccn3Cc3ccc(C(=O)NO)cc3)c2)C[C@H](C)N1Cc1ncccn1', 'moderate'),
  ('O=C(NO)c1ccc(Cn2ccc3cc(-c4ccc(F)cc4F)cnc32)cc1', 'moderate'),
  ('O=C(NO)c1ccc(Cn2ccc3cc(C4CCN(C(=O)c5ccc(CN6CCOCC6)cc5)CC4)cnc32)cc1', 'moderate'),
  ('CN1CCN(c2ccccc2CN2CCC(c3cnc4c(ccn4Cc4ccc(C(=O)NO)cc4)c3)CC2)CC1', 'high'),
  ('CC(C)(O)CN1CC=C(c2cnc3c(ccn3Cc3ccc(C(=O)NO)cc3)c2)CC1', 'high'),
  ('CC(CC(=O)O)N1CCC(c2ccnc3c2ccn3Cc2ccc(C(=O)NO)cc2)CC1 (stereo not drawn)', 'moderate'),
  ('COc1ccc(-c2cnc3c(ccn3Cc3ccc(C(=O)NO)cc3)c2)cc1', 'high'),
  ('O=C(O)CCN1CCC(c2ccnc3c2ccn3Cc2ccc(C(=O)NO)cc2)CC1', 'moderate'),
  ('CC(C)(O)CN1C2CCC1CN(c1ccnc3c1ccn3Cc1ccc(C(=O)NO)cc1)C2', 'low'),
  ('O=C(NO)c1ccc(Cn2ccc3cc(C4CCN(C(=O)c5cccc(F)c5)CC4)cnc32)cc1', 'moderate'),
  ('CN1CCN(Cc2ccc(CN3CCC(c4cnc5c(ccn5Cc5ccc(C(=O)NO)cc5)c4)CC3)cc2)CC1', 'moderate'),
  ('COc1cccc(CN2[C@H](C)CN(c3cnc4c(ccn4Cc4ccc(C(=O)NO)cc4)c3)C[C@@H]2C)c1', 'high'),
  ('Nc1cccc(-c2cnc3c(ccn3Cc3ccc(C(=O)NO)cc3)c2)c1', 'high'),
  ('CC(C)N1CCN(c2ccnc3c2ccn3Cc2ccc(C(=O)NO)cc2)CC1', 'low'),
  ('CC(C)(F)C(=O)N1CCC(c2cnc3c(ccn3Cc3ccc(C(=O)NO)cc3)c2)CC1', 'low'),
  ('O=C(NO)c1ccc(Cn2ccc3cc(C4CCOCC4)cnc32)cc1', 'moderate'),
  ('CC(C)(C(=O)O)N1CCC(c2ccnc3c2ccn3Cc2ccc(C(=O)NO)cc2)CC1', 'low'),
  ('CC1CN(c2cnc3c(ccn3Cc3ccc(C(=O)NO)cc3)c2)CC(C)O1 (stereo not drawn)', 'low'),
  ('O=C(NO)c1ccc(Cn2ccc3c(N4CCC5(CCN(Cc6cccnc6)C5)CC4)ccnc32)cc1', 'low'),
  ('O=C(NO)c1ccc(Cn2ccc3cc(C4CCN(Cc5ccc(-n6ccnc6)cc5)CC4)cnc32)cc1', 'moderate'),
  ('O=C(NO)c1ccc(Cn2ccc3c(N4CCN(Cc5ccncc5)CC4)ccnc32)cc1', 'low'),
  ('O=C(NO)c1ccc(Cn2ccc3cc(N4CCN(Cc5ccccc5F)CC4)cnc32)cc1', 'moderate'),
  ('O=C(NO)c1ccc(Cn2ccc3c(N4CCN(Cc5cccc(F)c5)CC4)ccnc32)cc1', 'moderate'),
  ('O=C(NO)c1ccc(Cn2ccc3cc(C4CCN(Cc5noc(C(F)(F)F)n5)CC4)cnc32)cc1', 'low'),
  ('CC(C)(O)CN1CCC(c2cnc3c(ccn3Cc3ccc(C(=O)NO)cc3)c2)CC1', 'moderate');
